Hello, the source for this data is patent US20100056524A1, in case you need it.

Target: TBK1 (Homo sapiens, UniProt Q9UHD2)
Construct: All protein kinases were of human origin and encoded full length proteins, unless indicated otherwise; His6; made in house; host or cells: insect Sf21 cells
Sequence (Q9UHD2 whole entry): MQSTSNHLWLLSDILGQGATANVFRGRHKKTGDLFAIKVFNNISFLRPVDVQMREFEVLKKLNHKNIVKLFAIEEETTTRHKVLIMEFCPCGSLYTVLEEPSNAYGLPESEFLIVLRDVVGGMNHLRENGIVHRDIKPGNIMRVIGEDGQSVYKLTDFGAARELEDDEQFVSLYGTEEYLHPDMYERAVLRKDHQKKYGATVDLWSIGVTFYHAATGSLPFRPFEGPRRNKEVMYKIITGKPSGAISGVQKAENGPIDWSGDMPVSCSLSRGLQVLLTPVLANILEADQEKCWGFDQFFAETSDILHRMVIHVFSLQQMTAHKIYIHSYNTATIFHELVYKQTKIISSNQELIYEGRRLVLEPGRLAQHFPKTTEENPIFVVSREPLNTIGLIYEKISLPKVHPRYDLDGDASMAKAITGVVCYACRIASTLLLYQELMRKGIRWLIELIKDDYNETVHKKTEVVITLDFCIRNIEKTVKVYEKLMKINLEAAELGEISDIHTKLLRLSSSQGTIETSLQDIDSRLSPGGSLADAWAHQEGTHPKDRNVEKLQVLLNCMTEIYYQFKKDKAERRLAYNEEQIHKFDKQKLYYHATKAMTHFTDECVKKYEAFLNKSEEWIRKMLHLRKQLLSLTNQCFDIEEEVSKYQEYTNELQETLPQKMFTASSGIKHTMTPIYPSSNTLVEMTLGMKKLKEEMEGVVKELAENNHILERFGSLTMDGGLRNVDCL
Test: TBK1 protein kinase assay ([γ-33P]ATP, P81 filterplates)
Type: biochemical
Details: 50 μM ATP; read-out: Potency (TBK1 IC50 potency score)
Counter-ions that a name gives are not always drawn.
Parameter: IC50. Scope: all listed entries.

Consider the worked cases shown below.
Cc1nc2ccc(Nc3ncc(C4CC4)c(NCCCNC(=O)C4CCC4)n3)cc2[nH]1 [Example 209] = < 100 nM
O=C(NCCCNc1nc(Nc2ccc(N3CCCCC3)nc2)ncc1C1CC1)C1CCC1 [Example 150] = < 100 nM
O=C(NCCCNc1nc(Nc2cncnc2)ncc1C1CC1)C1CCC1 [Example 149] = 1000 to 10000 nM

Qu. Reported IC50 for O=C(NCCCNc1nc(Nc2cccc(OC(F)(F)F)c2)ncc1C1CC1)c1cccs1 [Example 35, trifluoroacetic acid salt] : what is it?
Ans. 100 to 1000 nM

Qu. Next compound up: Cn1c(=O)n(C)c2cc(Nc3ncc(C4CC4)c(NCCCNC(=O)C4CCC4)n3)ccc21 [Example 179]
Ans. < 100 nM

Qu. Please answer likewise for O=C(NCCCNc1nc(Nc2cccnc2)ncc1C1CC1)C1CCCC1 [Example 66]
Ans. < 100 nM

Qu. Now give it for CC(C)(c1cccc(Nc2ncc(C3CC3)c(NCCCNC(=O)C3CCC3)n2)c1)N1CCOCC1 [Example 145] too.
Ans. < 100 nM

Qu. And then NC(=O)c1cccc(Nc2ncc(C3CC3)c(NCCCNC(=O)c3cccs3)n2)c1 [Example 36, trifluoroacetic acid salt] , what is it?
Ans. 100 to 1000 nM
